Exercise: for every item that follows, state its recorded IC50.
# targetOfAssay: UniProt P43088
# testDescription: In vitro test of inhibition of human FP receptor activity, variant B-1A (PGF2α-induced calcium flux in FP-expressing CHEM1 cells)
# Type: cell-based
# condition: calcium flux induced by 3 nM PGF2α, Fluo-8, some mean values from multiple determinations
Answers are plain numbers, in nM.

Solved cases below.
chemicalString	IC50 (nM)
Cc1c(-c2ccccc2)nc2ccc(Br)cc2c1C(=O)Nc1ccc(C(=O)O)cc1N	335
Cc1c(-c2ccccc2)nc2ccc(Br)cc2c1C(=O)Nc1ccc(C(=O)O)c(F)c1	795
Cc1c(-c2ccccc2)nc2ccc(Br)cc2c1C(=O)Nc1ccc(C(=O)O)cc1S(C)(=O)=O	86
Cc1c(-c2ccccc2)nc2ccc(C(C)C)cc2c1C(=O)Nc1ccc(C(=O)O)cc1F	272
CCCc1c(-c2ccccc2)nc2ccc(Br)cc2c1C(=O)Nc1ccc(C(=O)O)cc1F	560
Cc1c(-c2ccccc2)nc2ccc(Br)cc2c1C(=O)Nc1ccc(C(=O)O)cc1OC(F)(F)F	57
O=C(O)c1cc(F)c(NC(=O)c2c(C(F)(F)F)c(-c3ccccc3)nc3ccc(Br)cc23)c(Br)c1	301
Cc1c(-c2ccccc2)nc2ccc(Br)cc2c1C(=O)Nc1cnc(C(=O)O)nc1	880

Required: IC50, one value per compound below.
1. Cc1c(C(=O)Nc2ccc(C(=O)O)cc2SC(F)(F)F)c2cc(Br)ccc2[n+]([O-])c1-c1ccccc1
2. CNC(=O)c1ccc(NC(=O)c2c(C)c(-c3ccccc3)nc3ccc(Br)cc23)c(F)c1
3. CSc1cc(C(=O)O)ccc1NC(=O)c1c(C)c(-c2ccccc2)nc2ccc(Br)cc12

Output:
102
285
124

* * *

# targetOfAssay: Human FP Receptor (Homo sapiens (Human), UniProt P43088)
# Sequence (P43088 whole entry): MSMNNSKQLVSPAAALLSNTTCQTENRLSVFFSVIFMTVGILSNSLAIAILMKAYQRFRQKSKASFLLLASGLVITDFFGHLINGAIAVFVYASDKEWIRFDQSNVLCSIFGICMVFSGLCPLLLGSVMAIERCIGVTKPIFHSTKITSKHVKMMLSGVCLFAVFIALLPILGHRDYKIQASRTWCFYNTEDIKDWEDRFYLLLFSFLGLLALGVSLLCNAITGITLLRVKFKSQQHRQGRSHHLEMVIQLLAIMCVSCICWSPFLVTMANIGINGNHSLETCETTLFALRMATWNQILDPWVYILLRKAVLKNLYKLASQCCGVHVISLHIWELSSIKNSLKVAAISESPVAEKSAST
# testDescription: In vitro test of inhibition of human FP receptor activity, variant B-1A (PGF2α-induced calcium flux in FP-expressing CHEM1 cells)
# Type: cell-based
# condition: calcium flux induced by 3 nM PGF2α, Fluo-8, some mean values from multiple determinations
quantityMeasured: IC50

compound	targetOfAssay	IC50
Cc1c(-c2ccccc2)nc2ccc(Br)cc2c1C(=O)Nc1ccc(C(=O)O)cc1[S+](C)[O-] (stereo not shown)	Human FP Receptor (Homo sapiens (Human), UniProt P43088)	720 nM

For every item below, please supply its IC50.
1. Cc1c(-c2ccccc2F)nc2ccc(Br)cc2c1C(=O)Nc1ccc(C(=O)O)cc1F
2. O=C(O)c1ccc(NC(=O)c2c(Cl)c(-c3ccccc3)nc3ccc(I)cc23)c(F)c1
3. Cc1c(-c2ccccc2)nc2ccc(Br)cc2c1C(=O)Nc1ccc(C(=O)O)cc1F [Example 7]

Output:
205 nM
9 nM
20 nM

* * *

# targetOfAssay: Human FP Receptor (Homo sapiens (Human), UniProt P43088)
# testDescription: In vitro test of inhibition of human FP receptor activity, variant B-1A (PGF2α-induced calcium flux in FP-expressing CHEM1 cells)
# Format: cell-based
# condition: calcium flux induced by 3 nM PGF2α, Fluo-8, some mean values from multiple determinations
# From the text: […]
quantityMeasured: pIC50
One number for each entry, as −log10 of the molar value.

Some compounds with recorded pIC50:
compound	quantityMeasured	quantitativeResult
Cc1c(-c2ccccc2)nc2ccc([Si](C)(C)C)cc2c1C(=O)Nc1ccc(C(=O)O)cc1F [Example 36]	pIC50	7.11
Cc1c(-c2ccccc2)nc2cc(Cl)c(Br)cc2c1C(=O)Nc1ccc(C(=O)O)cc1F [Example 41]	pIC50	7.60
O=C(O)c1ccc(NC(=O)c2c(Cl)c(-c3ccccc3)nc3ccc(Br)cc23)c(F)c1 [Example 76]	pIC50	7.77

// next entry
Task: What pIC50 value was documented for this compound, Cc1c(-c2ccccc2)nc2ccc(OC(F)(F)F)cc2c1C(=O)Nc1ccc(C(=O)O)cc1F [Example 35] ?
Output: 6.54
